# tested target: CDK2/CycE (Homo sapiens (Human), UniProt P24941)
# measurement protocol: CDK2/CycE kinase assay (TR-FRET)
# Assay type: biochemical
# condition label: Method 2
endpoint label: IC50 (nM)

Known results for compounds:
COc1ccccc1-c1ncnc(Nc2cccc(CS(C)(=N)=O)c2)n1 (single isomer, unassigned) [Example 28] | 5900
CCS(=O)(Cc1cccc(Nc2ncnc(-c3ccc(F)cc3OC)n2)c1)=NC#N (racemic) | 360
CS(=N)(=O)Cc1cccc(Nc2ncnc(-c3ccc(F)cc3OCc3cccc(F)c3)n2)c1 (racemic) | 260
CS(=N)(=O)Cc1cccc(Nc2ncnc(-c3ccc(F)cc3OCc3ccc(F)c(F)c3)n2)c1 (racemic) | 1000
CS(=N)(=O)Cc1cccc(Nc2ncnc(-c3ccc(F)cc3OCc3cc(F)c(F)cc3F)n2)c1 (racemic) | 1200
CN=S(C)(=O)Cc1cccc(Nc2ncnc(-c3ccc(F)cc3OC)n2)c1 (racemic) | 2600
COc1ccc(F)cc1-c1ncnc(Nc2cccc(CS(C)(=N)=O)c2)n1 (racemic) [Example 21] | 3500
CCOC(=O)N=S(C)(=O)Cc1cccc(Nc2ncnc(-c3ccccc3OC)n2)c1 (racemic) | 6300

[P] COc1ccccc1-c1ncnc(Nc2cccc(CS(C)(=N)=O)c2)n1 (racemic) [Example 26]
[Q] COc1cc(F)ccc1-c1ncnc(Nc2ccc(Cl)c(CS(C)(=N)=O)c2)n1 (single isomer, unassigned) [Example 59.a]
[R] CS(=N)(=O)Cc1cccc(Nc2ncnc(-c3ccc(F)cc3OCc3cccnc3)n2)c1 (racemic)
[S] COc1ccccc1-c1ncnc(Nc2cccc(CS(C)(=N)=O)c2)n1 (single isomer, unassigned) [Example 27]
[T] CS(=N)(=O)Cc1cccc(Nc2ncnc(-c3ccc(F)cc3OCc3cc(F)cc(C(F)(F)F)c3)n2)c1 (racemic)
Problem: # sort list by recorded IC50, greatest to least List the labels in the requested order.
Result: S, P, Q, R, T
